# RUN CONDITIONS: normal mice, oral gavage, 3mg/kg; Liver; 15h
REPORTED METRIC: Drug concentration, time course
Lab note: jot down the number only; don't add units.

Name the recorded Drug concentration, time course for `Cc1ccc(-c2cc(C(F)(F)F)nn2-c2ccc(S(N)(=O)=O)cc2)cc1` .
400

Entry under review: `Cn1c(=O)cc(N2CCC[C@@H](N)C2)n(Cc2ccccc2C#N)c1=O` . Reported Drug concentration, time course?
100

For the compound `CC1(C)S[C@@H]2[C@H](NC(=O)[C@H](N)c3ccc(O)cc3)C(=O)N2[C@H]1C(=O)O` , what Drug concentration, time course is on record?
30

====

# RUN CONDITIONS: normal mice, oral gavage, 3mg/kg; Plasma; 3h
For each record, write down the corresponding Drug concentration, time course.
Provide a numeric answer; units are not to be included.

Consider the compound shown here: CC(C)Cc1ccc(C(C)C(=O)O)cc1 (stereo not shown) What is its recorded Drug concentration, time course?
600

Quick check: Drug concentration, time course of `CC1(C)S[C@@H]2[C@H](NC(=O)[C@H](N)c3ccc(O)cc3)C(=O)N2[C@H]1C(=O)O` ?
80

GET /values?readout=Drug concentration, time course&item= `Cc1ccc([C@@H]2O[C@H](CO)[C@@H](O)[C@H](O)[C@H]2O)cc1Cc1ccc(-c2ccc(F)cc2)s1`
500

Recorded Drug concentration, time course for `COc1ccc2c(c1)c(CC(=O)O)c(C)n2C(=O)c1ccc(Cl)cc1` , please?
300

====

# Tested on: diabetes mellitus patients
# EXPERIMENT: Acute kidney injury
# Assay type: in vivo, human
# RUN CONDITIONS: Secondary Diagnosis with 3919 Outcomes; metformin as reference
Answer each item with its documented Association with AKI, Unadjusted (95% CI).

Give the measured Association with AKI, Unadjusted (95% CI) of `OC[C@H]1O[C@@H](c2ccc(Cl)c(Cc3ccc(O[C@H]4CCOC4)cc3)c2)[C@H](O)[C@@H](O)[C@@H]1O` .
0.83 (0.68–1.14)

May I ask what Association with AKI, Unadjusted (95% CI) has been recorded for `CN(C)C(=N)N=C(N)N` ?
1.0 (Reference)

What does the data say about its Association with AKI, Unadjusted (95% CI)? Entry: `Cc1ccc([C@@H]2O[C@H](CO)[C@@H](O)[C@H](O)[C@H]2O)cc1Cc1ccc(-c2ccc(F)cc2)s1`
0.89 (0.61–1.25)

May I ask what Association with AKI, Unadjusted (95% CI) has been recorded for `CC1(C)S[C@@H]2[C@H](NC(=O)[C@H](N)c3ccc(O)cc3)C(=O)N2[C@H]1C(=O)O` ?
1.17 (0.88–1.43)

====

# RUN CONDITIONS: normal mice, oral gavage, 3mg/kg; Plasma; 9h
Can you tell me Drug concentration, time course for the items I'm about to list?
Reply with just the number.

Value lookup for Drug concentration, time course; key = COc1ccc2c(c1)c(CC(=O)O)c(C)n2C(=O)c1ccc(Cl)cc1 [Indomethacin, indomethacin]
50

Give the measured Drug concentration, time course of CC1=C(C(=O)O)N2C(=O)[C@@H](NC(=O)[C@H](N)c3ccccc3)[C@H]2SC1 [Cephalexin, cephalexin] .
30

Fill blank: measured Drug concentration, time course of the compound OC[C@H]1O[C@@H](c2ccc(F)c(Cc3cc4ccccc4s3)c2)[C@H](O)[C@@H](O)[C@@H]1O [Ipragliflozin, ipragliflozin] is ____.
30

Consider the compound shown here: N#C[C@@H]1CCCN1C(=O)CNC12CC3CC(CC(O)(C3)C1)C2 [Vildagliptin, vildagliptin] What is its recorded Drug concentration, time course?
1200

Data origin: paper PMC8053501
